- Tested on: HD-MY-Z;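 further: growth inhibition of HD-MY-Z cells, read out with a cell viability assay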
- Assay Details: cells
- Type: functional, cell-based, Homo sapiens
- Condition Details: hd-my-z
- Description: SANGER: Inhibition of human HD-MY-Z cell growth in a cell viability assay.
Assay Endpoint: IC50

Would you kindly share the measured IC50 for Cc1cc([C@@H](C)Nc2ccccc2C(=O)O)c2nc(N3CCOCC3)cc(=O)n2c1 [AZD-6482] ?
> 5.12 µM

---

- Tested on: NCI-H650;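 further: growth inhibition of NCI-H650 cells, read out by a viability assay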
- Assay Details: cells
- Assay type: functional, cell-based, Homo sapiens
- Condition Details: Homo sapiens, NCI-H650
- Description: SANGER: Inhibition of human NCI-H650 cell growth in a cell viability assay.
Assay Endpoint: IC50

Example entries and their recorded answers appear below.
CN(c1ncccc1CNc1nc(Nc2ccc3c(c2)CC(=O)N3)ncc1C(F)(F)F)S(C)(=O)=O    832 nM
O=C(NOCC1CC1)c1ccc(F)c(F)c1Nc1ccc(I)cc1Cl    > 10000 nM
CC(=O)O[C@@H]1[C@@H](OC(C)=O)[C@@H](O)[C@H](Oc2c(-c3ccc(O)cc3)oc3cc(O)cc(O)c3c2=O)O[C@H]1C    > 10000 nM
CCC1=C[C@@H]2CN(C1)Cc1c([nH]c3ccccc13)[C@@](C(=O)OC)(c1cc3c(cc1OC)N(C)[C@H]1[C@@](O)(C(=O)OC)[C@H](OC(C)=O)[C@]4(CC)C=CCN5CC[C@]31[C@@H]54)C2    16.1 nM
O=C(c1cc(Cc2n[nH]c(=O)c3ccccc23)ccc1F)N1CCN(C(=O)C2CC2)CC1    > 5000 nM

Would you kindly share the measured IC50 for `COc1ccc(-c2ccc3c(N4CCOC[C@@H]4C)nc(N4CCOC[C@@H]4C)nc3n2)cc1CO` ?
791 nM

Would you kindly share the measured IC50 for `C=CCc1cccc(/C=N/NC(=O)CN2CCN(Cc3ccccc3)CC2)c1O` ?
> 2560 nM

---

- Tested on: LOX IMVI
- Assay Details: cells
- Type: functional, cell-based
- Condition Details: Homo sapiens
- Description: SANGER: Inhibition of human LOXIMVI cell growth in a cell viability assay.
Assay Endpoint: IC50

CN(c1ncccc1CNc1nc(Nc2ccc3c(c2)CC(=O)N3)ncc1C(F)(F)F)S(C)(=O)=O [PF-00562271]    > 2560 nM
CC1=C2C[C@H]3[C@@H](CC=C4C[C@@H](O)CC[C@@]43C)[C@@H]2CC[C@]12O[C@@H]1C[C@H](C)CN[C@H]1[C@H]2C [CYCLOPAMINE]    > 16000 nM
Nc1ccn([C@@H]2O[C@H](CO)[C@@H](O)[C@@H]2O)c(=O)n1 [CYTARABINE]    290 nM
Cc1cnc(-c2cnc(NCCNc3ccc(C#N)cn3)nc2-c2ccc(Cl)cc2Cl)[nH]1 [LADUVIGLUSIB]    588 nM
CCC1=C[C@@H]2CN(C1)Cc1c([nH]c3ccccc13)[C@@](C(=O)OC)(c1cc3c(cc1OC)N(C)[C@H]1[C@@](O)(C(=O)OC)[C@H](OC(C)=O)[C@]4(CC)C=CCN5CC[C@]31[C@@H]54)C2 [VINORELBINE]    > 64 nM

Provide value of IC50 for this record tested with LOX IMVI: Cc1cc(Nc2cc(N3CCN(C)CC3)nc(Sc3ccc(NC(=O)C4CC4)cc3)n2)n[nH]1 [TOZASERTIB]
> 2000 nM

Provide value of IC50 for this record tested with LOX IMVI: CCC(=O)N1CCN(c2ccc(-n3c(=O)ccc4cnc5ccc(-c6cnc7ccccc7c6)cc5c43)cc2C(F)(F)F)CC1 [TORIN1]
125 nM

Provide value of IC50 for this record tested with LOX IMVI: Cc1cc([C@@H](C)Nc2ccccc2C(=O)O)c2nc(N3CCOCC3)cc(=O)n2c1 [AZD-6482]
> 5120 nM

Provide value of IC50 for this record tested with LOX IMVI: Cn1cncc1[C@@](N)(c1ccc(Cl)cc1)c1ccc2c(c1)c(-c1cccc(Cl)c1)cc(=O)n2C [TIPIFARNIB]
> 16000 nM
